Tested on: Fer (mouse)
Experiment: phosphorylation enrichment, bacterial display (enrichment ratio); higher = better substrate or ligand; peptides without Tyr show the background;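 note: 11-residue human phosphosite peptides and single-mutation variants displayed on the E. coli surface, counted by deep sequencing, each peptide's frequency after selection divided by its frequency in the unselected input library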;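 note: frequency after pTyr selection over input frequency; kinase dosed for 20-30% of maximal phosphorylation in three min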

# Biosequence, phosphorylation enrichment
rows = [
    ("VIGRMYDYHVL [RPF2_Y109]", 9.05),
    ("QRIFQYIRSRF [DYRK1B_Y273_Q275R_YF]", 0.827),
    ("EREFKYDAHNF [OAT_Y50_G51D_YF]", 0.832),
    ("TEFIQYMRRKN [MAX_Y73_YF]", 0.51),
    ("EIVHRYVELLD [AP1S3_Y87]", 0.499),
    ("HHIDFYKKTTN [FGFR1_Y654_YF]", 0.604),
    ("SHISGYATLRR [RAPH1_Y1226]", 0.399),
]

----------
Reported phosphorylation enrichment by item:
Test system: Fer (mouse)
Experiment: phosphorylation enrichment, bacterial display (enrichment ratio); higher = better substrate or ligand; peptides without Tyr show the background
Recorded endpoint: phosphorylation enrichment

# Biosequence, Recorded endpoint, Value observed
rows = [
    ("EEQKKYYNATK [SCN5A_Y1494_M1498T]", "phosphorylation enrichment", 0.421),
    ("SVNCTYSPALN [TP53_Y126_T123N]", "phosphorylation enrichment", 0.521),
    ("GRRNTCYASIA [ACADM_Y352_Y352C]", "phosphorylation enrichment", 0.33),
    ("GGRIDYIAGLV [APRT_Y60_D65V]", "phosphorylation enrichment", 0.715),
    ("EQLLDYTRTVQ [INPP5E_Y439_R435Q]", "phosphorylation enrichment", 0.494),
    ("HAVYVYDICHV [TWNK_Y508]", "phosphorylation enrichment", 6.45),
    ("IRTGIYHGGEP [PIK3CA_Y361_V356I]", "phosphorylation enrichment", 0.399),
    ("SFPSFYTSHVQ [NEFL_Y443_YF]", "phosphorylation enrichment", 0.509),
    ("QNVADYMRFLM [RPL5_Y207_YF]", "phosphorylation enrichment", 0.818),
    ("MSSAGYRAAEG [COL6A3_Y543_T538M]", "phosphorylation enrichment", 0.379),
    ("RAIELCNDKEK [OTULIN_Y244_Y244C]", "phosphorylation enrichment", 0.471),
    ("TFQFKYPEGSS [TGM4_Y440_E437Q_YF]", "phosphorylation enrichment", 0.363),
    ("EADRKYEEVAG [TPM3_Y163_R168G]", "phosphorylation enrichment", 0.464),
    ("IEKLTYIDKWF [CPS1_Y872]", "phosphorylation enrichment", 0.532),
]

----------
Target: EPHB2 (UniProt P29323)
Sequence (P29323 whole entry, looked up): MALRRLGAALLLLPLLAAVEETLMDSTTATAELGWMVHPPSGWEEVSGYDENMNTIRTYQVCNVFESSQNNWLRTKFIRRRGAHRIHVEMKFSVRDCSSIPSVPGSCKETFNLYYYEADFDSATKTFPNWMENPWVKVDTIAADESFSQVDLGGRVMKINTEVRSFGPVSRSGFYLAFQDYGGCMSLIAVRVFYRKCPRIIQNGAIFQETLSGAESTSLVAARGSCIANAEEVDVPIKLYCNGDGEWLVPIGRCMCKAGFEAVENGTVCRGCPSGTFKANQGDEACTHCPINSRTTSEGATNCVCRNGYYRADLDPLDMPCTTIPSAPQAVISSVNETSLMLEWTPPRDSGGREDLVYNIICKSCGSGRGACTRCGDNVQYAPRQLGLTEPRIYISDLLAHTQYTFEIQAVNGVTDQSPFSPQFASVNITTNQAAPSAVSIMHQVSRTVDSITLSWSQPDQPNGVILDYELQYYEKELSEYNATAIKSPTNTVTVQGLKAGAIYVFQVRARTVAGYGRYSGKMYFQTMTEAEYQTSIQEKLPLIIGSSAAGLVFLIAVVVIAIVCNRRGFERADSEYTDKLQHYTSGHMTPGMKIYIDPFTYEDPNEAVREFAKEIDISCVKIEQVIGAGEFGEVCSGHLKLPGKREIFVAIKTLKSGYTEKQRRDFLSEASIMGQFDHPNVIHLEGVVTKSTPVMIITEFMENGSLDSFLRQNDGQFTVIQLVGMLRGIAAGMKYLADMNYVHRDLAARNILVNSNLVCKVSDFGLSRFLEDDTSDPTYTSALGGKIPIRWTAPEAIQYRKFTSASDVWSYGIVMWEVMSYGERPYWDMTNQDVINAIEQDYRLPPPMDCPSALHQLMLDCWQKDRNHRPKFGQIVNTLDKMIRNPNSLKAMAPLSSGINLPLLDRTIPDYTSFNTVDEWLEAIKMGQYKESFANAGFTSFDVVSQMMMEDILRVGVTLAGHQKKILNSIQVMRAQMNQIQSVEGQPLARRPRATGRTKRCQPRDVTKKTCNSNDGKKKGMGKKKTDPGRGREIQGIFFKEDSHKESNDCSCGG
Assay: phosphorylation enrichment, bacterial display (enrichment ratio); higher = better substrate or ligand; peptides without Tyr show the background

# Biosequence, phosphorylation enrichment
data = [
    ("RQSRNYLGGFA [SYK_Y47]", 0.56),
    ("TLSGIYQFSIA [FOXL2_Y81_I84S_YF]", 1.05),
    ("ETAENYLGYTA [HSPA9_Y181_H184Y]", 0.684),
    ("TYGQVYKGRHV [TNIK_Y40]", 0.506),
    ("CPPKVYELMIA [ABL2_Y515_R519I]", 2.25),
    ("IDGLEYLHSQS [STK11_Y166_G171S]", 0.549),
    ("ALRASYTPSPV [ESS2_Y418_A423V]", 0.53),
    ("ANRNVYEVEPT [MEGF10_Y1075]", 0.5),
    ("QRALLYEDTLF [UNC13D_Y56_A59T_YF]", 13.9),
    ("MSLPGYKLVTG [GJA1_Y286_P283L]", 0.393),
    ("DAHFTYSRYPW [LY75_Y888_D884A]", 5.6),
    ("AELKLYSGAQT [ZAP70_Y178_R175L]", 0.571),
    ("MSSLYYANALF [HOXB7_Y6_T9A]", 8.29),
    ("ISDEAYVMAGV [ERBB2_Y772_L768S]", 0.53),
    ("LYEDRYLLGTS [ASS1_Y87]", 1.23),
    ("RKRQFYLFKGK [RSPO4_Y112_C107R_YF]", 0.71),
    ("VMAALYGRLYE [BTD_Y536_T532M]", 1.42),
    ("CTTIHYNFMCF [TP53_Y234_N239Y_YF]", 0.522),
    ("QSRSPYSSRHS [CDK13_Y415_R410Q]", 0.443),
    ("EEQKKYYNATK [SCN5A_Y1494_M1498T]", 0.521),
    ("GARGRYVMGGP [TNK1_Y277]", 0.389),
    ("QEKKGYFEDRC [GLUL_Y336_R341C]", 0.631),
    ("IPPRRYFRSGV [STAMBP_Y36]", 0.523),
    ("RPGSGYTKIMR [PKLR_Y564_N566K]", 0.303),
    ("HVKHNYECLVF [XRCC5_Y416_I412V_YF]", 1.16),
    ("EQLLDYTRTVQ [INPP5E_Y439_R435Q]", 0.569),
    ("ILTFKYLQIPM [KIT_Y547_K550I_YF]", 0.649),
    ("NKVKFYIPYMN [NCR1_Y84_D87Y]", 0.496),
    ("NKHTTYTMEHI [ACTN1_Y708_N707T]", 0.4),
]
